Please provide measured PI for the entries that follow.
System: motor performance
Experiment: Minimal neurotoxicity (chimney test), motor performance
Conditions: Protective index = TD50/ED50
// return just the number, without any unit appended

**Q:** Check the records and state PI for CC(=O)NNC(=O)CSc1nc2ccc(Cl)cc2c(=O)n1Cc1ccccc1 [Compound 105]
**A:** 8.7

**Q:** Check the records and state PI for COc1cc2nc(SCC(=O)NN)n(Cc3ccccc3)c(=O)c2cc1OC [Compound 70]
**A:** 4.67

**Q:** Check the records and state PI for CCC(=O)NNC(=O)CSc1nc2ccc(Cl)cc2c(=O)n1-c1ccccc1 [Compound 89]
**A:** 8.5

**Q:** Check the records and state PI for CCC(=O)NNC(=O)CSc1nc2cc(OC)c(OC)cc2c(=O)n1Cc1ccccc1 [Compound 110]
**A:** 4.1

**Q:** Check the records and state PI for O=C(CCc1ccccc1)NNC(=O)CSc1nc2ccc(Cl)cc2c(=O)n1Cc1ccccc1 [Compound 115]
**A:** 4.6
